- Test system: Colon cancer organoid
- EXPERIMENT NOTES: Identification of compartment-specific drug sensitivities in O06 CRC organoid-stroma F06 CAF co-cultures. Organoid is transduced with Lucferase2-P2A-EGFP lentivirus, fibroblast with Renilla-dsRed lentivirus. Dual-Glo Luciferase assay is used to report viability data.
- Assay type: functional, Homo sapiens
- Design: dose or concentration left out as unconfirmed
- EXPERIMENTAL SETUP: Transduced with Renilla-dsRed lentivirus
Listed here are compounds together with their documented Cell Viability.
Output spec: scalar in %, unitless text.

Example entries begin here.
CC(C)(O)CNc1ncc(-c2ccnc(Nc3ccnc(Cl)c3)n2)c(CC2CC2)n1 = 168.017
CN(C)CC#Cc1ccc(OCCCc2sc(N3CCc4cccc(C(=O)Nc5nc6ccccc6s5)c4C3)nc2C(=O)O)c(F)c1 = 128.541
Cl.Cl.Cl.c1ccc(N2CCN(Cc3nc4ccccc4[nH]3)CC2)nc1 = 192.419
CN(C)C(=O)c1cc2cnc(Nc3ccc(N4CCNCC4)cn3)nc2n1C1CCCC1 = 126.231
CSc1cccnc1N1CCN(Cc2nc3ccccc3[nH]2)CC1 = 105.586

I am curious: what Cell Viability value has been reported for Cc1cc(=O)n(C)c2cc(N3C(=O)CC[C@H](NS(=O)(=O)CC(C)C)[C@H]3c3ccc(Cl)cc3)ccc12 ?
167.751

How about this compound: CN1CCN(Cc2cc(NC(=O)c3ccc4c(c3)CN(c3ccccc3)CC4)cc(C(F)(F)F)c2)CC1
147.303

Can you handle Cc1c(NC(=O)c2ccc(C(C)(C)C)cc2)cccc1-c1cn(C)c(=O)c(Nc2ccc(C(=O)N3CCOCC3)cc2)n1 next?
113.435

Same read-out for CC1=C(C#N)C(c2ccc3c(c2)c(NC(=O)c2ccccc2C)nn3C)C(C#N)=C(C)N1 ?
87.5124

Then Cl.O=C([C@@H](Cc1cccc(C(F)(F)F)c1)NS(=O)(=O)c1cc(F)c2c(c1)CCNC2)N1CCCC1 ?
115.078

Please give the result for CCC(=O)N[C@@H]1CC[C@H](C(=O)N(C)c2ccc(-c3nc4ccccc4o3)cc2)C1 too.
119.997

Try CC(=O)c1cc(-c2cc(C(=O)NC3CC3)ccc2C)c2ncccn12 next.
118.795

Next record, please: O=C(c1ccc(C(=O)N2CCC(N3CCCC3)CC2)c(Nc2ccccc2)c1)N1CCC(N2CCCC2)CC1
96.0319

Now give it for Cc1ncsc1-c1ccc(CNC(=O)[C@@H]2C[C@@H](O)CN2C(=O)[C@@H](NC(=O)CCCCNC(=O)c2ccc(-c3ccc(N4CCN(C)CC4)c(NC(=O)c4c[nH]c(=O)cc4C(F)(F)F)c3)cc2)C(C)(C)C)cc1 too.
85.2238

What would you report for C[C@@H](NC(=O)Nc1cc2[nH]ncc2c(CO)n1)c1ccccc1 ?
113.572

Here is the next compound: CCCCNc1ncc(-c2ccc(CN3CCOCC3)cn2)c(N[C@H]2CC[C@H](O)CC2)n1
123.664

Another: COc1ccc(COc2ccc(Cc3cnc(N)nc3N)cc2OC)cc1 [GW632580X]
83.7807

# credit: ChEMBL document CHEMBL5608141
